Provenance of the data: patent US20210221899A1

Listed here: items and their measured Percent Similarity Score (KD on cN).
Target: T1, canine NGF (canine, UniProt Q29074 110-229 (pig entry), limits assumed)
T1 construct: The protein was secreted from CHO cells and purified; also called cNGF; canine β-NGF
T1 chain: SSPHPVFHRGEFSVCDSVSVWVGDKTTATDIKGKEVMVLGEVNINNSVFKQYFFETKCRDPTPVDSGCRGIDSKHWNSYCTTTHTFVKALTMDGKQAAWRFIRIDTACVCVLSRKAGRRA
Assay: SPR (Biacore T200), 100 nM mAb on NGF chip, similarity to parent mAb
Could you give me the number in %? Just the number is fine.

Reported Percent Similarity Score (KD on cN), binder can48L2VL_D93A (antibody, V domains shown, CDR scanning mutant of ZTS-842 (48L2)) VH: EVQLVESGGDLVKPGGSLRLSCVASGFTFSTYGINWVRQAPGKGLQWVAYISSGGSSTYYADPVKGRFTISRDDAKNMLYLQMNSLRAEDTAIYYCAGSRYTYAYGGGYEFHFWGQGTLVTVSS VL: QAVLNQPASVSGALGQKVTISCSGSTMDIDIFGVSWYQQLPGKAPKLLVDSDGDRPSGIPDRFSGSRSGNSGTLTITGLQAEDEADYHCQSGASTLGALAIFGGGTHVTVL : ____
98.7

What value of measured Percent Similarity Score (KD on cN) is listed for can9L12VH_S56A (antibody, V domains shown) VH: EVQLVESGGDLVKPGGSLRLSCVASGFTFSSHGMHWVRQSPGKGLQWVAVINSGGASTYYTDAVKGRFTISRDNAKNTVYLQMNSLRAEDTAMYYCAKESVGGWEQLVGPHFDYWGQGTLVIVSS VL: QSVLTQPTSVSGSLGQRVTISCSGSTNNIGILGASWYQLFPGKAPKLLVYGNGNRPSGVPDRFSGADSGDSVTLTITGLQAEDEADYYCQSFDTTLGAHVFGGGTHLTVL ?
96.8

May I ask what Percent Similarity Score (KD on cN) has been recorded for can48L2VH_S57A (antibody, V domains shown, CDR scanning mutant of ZTS-842 (48L2)) VH: EVQLVESGGDLVKPGGSLRLSCVASGFTFSTYGINWVRQAPGKGLQWVAYISSGGSATYYADPVKGRFTISRDDAKNMLYLQMNSLRAEDTAIYYCAGSRYTYAYGGGYEFHFWGQGTLVTVSS VL: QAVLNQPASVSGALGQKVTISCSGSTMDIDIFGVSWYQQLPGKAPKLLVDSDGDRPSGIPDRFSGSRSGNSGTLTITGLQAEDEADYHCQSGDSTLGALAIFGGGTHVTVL ?
98.4
